IC50, 5HT2A(rat) (Rattus norvegicus, UniProt P14842): measured values
Write the value in nM as a bare number.

Answered cases to consult:
[
  {
    "compound": "C[C@H](N)Cn1ncc2ccc3oc(C(=O)NCC4(O)CC4)cc3c21 [Example 10]",
    "assaySystem": "5HT2A(rat) (Rattus norvegicus, UniProt P14842)",
    "IC50 [nM]": 1.1
  },
  {
    "compound": "COCCNC(=O)c1cc2c(ccc3cnn(C[C@H](C)N)c32)o1 [Example 8]",
    "assaySystem": "5HT2A(rat) (Rattus norvegicus, UniProt P14842)",
    "IC50 [nM]": 2.3
  },
  {
    "compound": "CCOC(=O)c1cc2c(ccc3cnn(C[C@H](C)N)c32)o1.O=C(O)/C=C/C(=O)O [Example 1, fumarate]",
    "assaySystem": "5HT2A(rat) (Rattus norvegicus, UniProt P14842)",
    "IC50 [nM]": 0.21
  },
  {
    "compound": "C[C@H](N)Cn1ncc2ccc3oc(CO)cc3c21 [Example 2]",
    "assaySystem": "5HT2A(rat) (Rattus norvegicus, UniProt P14842)",
    "IC50 [nM]": 0.53
  },
  {
    "compound": "C[C@H](N)Cn1ncc2ccc3oc(C(=O)NCCN4CCOCC4)cc3c21 [Example 7]",
    "assaySystem": "5HT2A(rat) (Rattus norvegicus, UniProt P14842)",
    "IC50 [nM]": 1.3
  },
  {
    "compound": "CC(=O)Nc1ccc(S(=O)(=O)NCc2cc3c(ccc4cnn(C[C@H](C)N)c43)o2)cc1 [Example 19]",
    "assaySystem": "5HT2A(rat) (Rattus norvegicus, UniProt P14842)",
    "IC50 [nM]": 4.1
  },
  {
    "compound": "C[C@H](N)Cn1ncc2ccc3oc(C(=O)NCCc4cnc[nH]4)cc3c21.O=C(O)/C=C/C(=O)O [Example 6, fumarate]",
    "assaySystem": "5HT2A(rat) (Rattus norvegicus, UniProt P14842)",
    "IC50 [nM]": 0.66
  },
  {
    "compound": "CC(O)CNC(=O)c1cc2c(ccc3cnn(C[C@H](C)N)c32)o1 (stereo partly shown) [Example 9]",
    "assaySystem": "5HT2A(rat) (Rattus norvegicus, UniProt P14842)",
    "IC50 [nM]": 1.5
  },
  {
    "compound": "Cc1ccc(CNC(=O)c2cc3c(ccc4cnn(C[C@H](C)N)c43)o2)o1 [Example 14]",
    "assaySystem": "5HT2A(rat) (Rattus norvegicus, UniProt P14842)",
    "IC50 [nM]": 0.3
  }
]

Consider now this further compound.
Incoming: Provide value of IC50 for this record tested with 5HT2A(rat) (Rattus norvegicus, UniProt P14842): C[C@H](N)Cn1ncc2ccc3oc(CNC(=O)c4cccnc4)cc3c21 [Example 17]
Sequence (P14842 whole entry): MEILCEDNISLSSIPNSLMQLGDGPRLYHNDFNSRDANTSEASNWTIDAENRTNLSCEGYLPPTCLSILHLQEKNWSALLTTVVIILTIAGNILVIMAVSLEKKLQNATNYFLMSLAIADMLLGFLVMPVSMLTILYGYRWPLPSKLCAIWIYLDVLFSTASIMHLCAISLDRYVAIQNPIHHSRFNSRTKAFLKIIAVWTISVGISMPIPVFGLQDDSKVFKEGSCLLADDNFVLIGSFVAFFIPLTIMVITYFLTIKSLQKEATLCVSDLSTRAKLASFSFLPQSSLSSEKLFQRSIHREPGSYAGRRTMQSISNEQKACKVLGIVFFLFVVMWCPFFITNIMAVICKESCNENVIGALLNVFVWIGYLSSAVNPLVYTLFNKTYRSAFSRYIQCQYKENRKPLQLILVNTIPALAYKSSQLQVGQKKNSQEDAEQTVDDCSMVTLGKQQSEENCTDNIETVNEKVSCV
Outgoing: 3

###

Measurement record for 5HT2A(rat) (Rattus norvegicus, UniProt P14842); quantity recorded: pIC50.
Where a name gives a salt, the structure may show the parent alone.
Bear in mind: pIC50 is minus log10 of a mol/L concentration; give just that figure.

Previously resolved entries follow.
[
  {
    "compound": "CNC(=O)Cc1cc2c(ccc3cnn(C[C@H](C)N)c32)o1 [Example 16]",
    "assaySystem": "5HT2A(rat) (Rattus norvegicus, UniProt P14842)",
    "number": 9.15
  },
  {
    "compound": "C[C@H](N)Cn1ncc2ccc3oc(C(=O)NCCO)cc3c21 [Example 5, fumarate]",
    "assaySystem": "5HT2A(rat) (Rattus norvegicus, UniProt P14842)",
    "number": 8.46
  },
  {
    "compound": "C[C@H](N)Cn1ncc2ccc3oc(C(=O)NCC(C)(C)CO)cc3c21 [Example 11]",
    "assaySystem": "5HT2A(rat) (Rattus norvegicus, UniProt P14842)",
    "number": 8.74
  }
]

Incoming: Given the entry Cc1noc(-c2cc3c(ccc4cnn(C[C@H](C)N)c43)o2)n1 [Example 15] , what pIC50 was observed with 5HT2A(rat) (Rattus norvegicus, UniProt P14842)?
Outgoing: 9.05

###

Biological target: 5HT2A(rat) (Rattus norvegicus)
Assay: 5HT2 Functional Assay: [Ca2+]i Mobilization (FLIPR, A7r5 cells)
Format: cell-based
Parameters: endogenous in cells; host or cells: A7r5 rat vascular smooth muscle cells
Conditions: percentage of maximum 5-HT-induced response, A7r5 cells
assayReadout: Emax
Reply with a number, then the unit it belongs to.

[
  {
    "compound": "CC(=O)Nc1ccc(S(=O)(=O)NCc2cc3c(ccc4cnn(C[C@H](C)N)c43)o2)cc1 [Example 19]",
    "assaySystem": "5HT2A(rat) (Rattus norvegicus)",
    "result": "82%"
  },
  {
    "compound": "Cc1noc(-c2cc3c(ccc4cnn(C[C@H](C)N)c43)o2)n1 [Example 15]",
    "assaySystem": "5HT2A(rat) (Rattus norvegicus)",
    "result": "101%"
  }
]

Incoming: # Emax lookup, item Cc1ccc(CNC(=O)c2cc3c(ccc4cnn(C[C@H](C)N)c43)o2)o1 [Example 14]
Outgoing: 94%

Incoming: Data request, read-out Emax, for C[C@H](N)Cn1ncc2ccc3oc(CO)cc3c21 [Example 2]
Outgoing: 86%

###

Read-out record for 5HT2A(rat) (Rattus norvegicus, UniProt P14842): pIC50
In textbook form, pIC50 equals minus log to base ten of the concentration in mol/L.

[
  {
    "compound": "CCNC(=O)NCc1cc2c(ccc3cnn(C[C@H](C)N)c32)o1",
    "pIC50": 8.39
  },
  {
    "compound": "CNC(=O)c1cc2c(ccc3cnn(C[C@H](C)N)c32)o1.O=C(O)/C=C/C(=O)O [Example 4, fumarate]",
    "pIC50": 9.09
  },
  {
    "compound": "C[C@H](N)Cn1ncc2ccc3oc(C(N)=O)cc3c21",
    "pIC50": 8.64
  },
  {
    "compound": "C[C@H](N)Cn1ncc2ccc3oc(C(=O)NCCCN4CCCC4=O)cc3c21",
    "pIC50": 8.70
  }
]

API: the following record is the query input.
Incoming: Param readout= pIC50; system= 5HT2A(rat) (Rattus norvegicus, UniProt P14842); entry= `CC(=O)NCCCNC(=O)c1cc2c(ccc3cnn(C[C@H](C)N)c32)o1` ; returns value.
Outgoing: 8.85
